Molecular target: T1, monkey CD22 on HEK293T-monkey CD22 cells (monkey)
T1 construct: full-length entry expressed on stably transfected HEK293T cells
T1 chain: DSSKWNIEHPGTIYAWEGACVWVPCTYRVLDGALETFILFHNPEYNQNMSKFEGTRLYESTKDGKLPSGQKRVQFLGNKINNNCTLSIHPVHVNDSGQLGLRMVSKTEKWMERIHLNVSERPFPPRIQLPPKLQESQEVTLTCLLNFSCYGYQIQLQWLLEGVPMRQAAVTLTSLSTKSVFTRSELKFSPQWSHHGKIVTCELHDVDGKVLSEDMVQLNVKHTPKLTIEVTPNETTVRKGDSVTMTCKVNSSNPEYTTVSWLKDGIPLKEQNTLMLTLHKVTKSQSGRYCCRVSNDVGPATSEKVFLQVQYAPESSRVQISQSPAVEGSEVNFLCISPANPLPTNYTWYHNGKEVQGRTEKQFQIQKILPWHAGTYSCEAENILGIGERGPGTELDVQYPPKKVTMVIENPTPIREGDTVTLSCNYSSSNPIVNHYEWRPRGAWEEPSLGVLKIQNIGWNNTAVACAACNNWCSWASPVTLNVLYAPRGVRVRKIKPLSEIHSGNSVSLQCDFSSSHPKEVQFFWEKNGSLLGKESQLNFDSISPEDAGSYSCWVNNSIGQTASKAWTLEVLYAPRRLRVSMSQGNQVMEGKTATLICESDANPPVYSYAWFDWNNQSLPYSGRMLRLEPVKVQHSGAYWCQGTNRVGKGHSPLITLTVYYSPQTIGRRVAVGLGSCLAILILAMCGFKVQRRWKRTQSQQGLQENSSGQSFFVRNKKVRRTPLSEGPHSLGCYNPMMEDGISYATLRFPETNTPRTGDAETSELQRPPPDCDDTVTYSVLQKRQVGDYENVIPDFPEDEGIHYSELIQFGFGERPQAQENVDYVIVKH
Assay: FACS, HEK293T-monkey CD22 cells

{"binder": "F2.121.9 (antibody, human IgG1, lambda, V domains shown, human-murine chimeric IgG1 lambda) VH: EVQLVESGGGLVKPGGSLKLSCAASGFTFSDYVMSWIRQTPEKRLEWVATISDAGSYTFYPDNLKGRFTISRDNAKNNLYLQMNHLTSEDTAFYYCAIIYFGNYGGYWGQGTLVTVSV VL: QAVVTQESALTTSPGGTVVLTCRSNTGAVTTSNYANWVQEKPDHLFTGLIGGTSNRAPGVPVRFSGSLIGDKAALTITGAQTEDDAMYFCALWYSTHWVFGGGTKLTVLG", "Maximum mean fluorescence intensity, MFI": 19900}
{"binder": "F2.173.9 (antibody, human IgG1, lambda, V domains shown, human-murine chimeric IgG1 lambda) VH: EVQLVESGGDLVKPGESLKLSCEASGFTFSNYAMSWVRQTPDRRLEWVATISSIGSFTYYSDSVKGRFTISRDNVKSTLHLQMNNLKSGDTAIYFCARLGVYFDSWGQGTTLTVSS VL: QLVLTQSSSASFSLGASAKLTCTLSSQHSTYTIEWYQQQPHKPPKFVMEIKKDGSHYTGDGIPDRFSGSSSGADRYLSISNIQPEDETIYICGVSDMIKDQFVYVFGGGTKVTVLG", "Maximum mean fluorescence intensity, MFI": 22700}
{"binder": "F2.70.2 (antibody, human IgG1, lambda, V domains shown, human-murine chimeric IgG1 lambda) VH: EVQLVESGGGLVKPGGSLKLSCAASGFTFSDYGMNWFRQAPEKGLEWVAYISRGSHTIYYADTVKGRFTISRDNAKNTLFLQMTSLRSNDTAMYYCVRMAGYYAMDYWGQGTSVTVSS VL: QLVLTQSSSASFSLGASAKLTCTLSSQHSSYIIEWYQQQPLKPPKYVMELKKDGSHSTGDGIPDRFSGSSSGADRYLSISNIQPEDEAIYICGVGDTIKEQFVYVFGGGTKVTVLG", "Maximum mean fluorescence intensity, MFI": 409}
